Biological target: SIRT1 (Homo sapiens)
Assay: Mass spectrometry based SIRT1 deacetylation (activation) assay
Type: biochemical
Conditions: 0.5 μM peptide substrate, 120 μM βNAD+, 10 nM SIRT1, 25 min at 25° C.

record smiles: CCN(CCN(C)C)c1cc(C(=O)Nc2ccccc2-c2ncc(C(C)(C)C)o2)nc(-c2ccccc2)c1
EC1.5: A (EC1.5≦1 uM)
--
record smiles: CCN(CCN(C)C)c1cc(C(=O)Nc2ccccc2-c2nnc(NS(C)(=O)=O)s2)nc(-c2ccccc2)n1
EC1.5: A (EC1.5≦1 uM)
--
record smiles: CN(C)CCNc1cc(C(=O)Nc2ccccc2C(=O)NCCS(C)(=O)=O)nc(-c2ccccc2)n1
EC1.5: B (EC1.5>1 and ≦10 uM)
--
record smiles: CN1CCN(c2cc(C(=O)Nc3ccccc3-c3nncs3)nc(-c3ccccc3)n2)CC1=O
EC1.5: A (EC1.5≦1 uM)
--
record smiles: CCN(CCN(C)C)c1cc(C(=O)Nc2ccccc2-c2nnc(SC)s2)nc(-c2ccccc2)n1
EC1.5: A (EC1.5≦1 uM)
--
record smiles: CCN(CCN(C)C)c1cc(C(=O)Nc2ccccc2C(=O)NC2CCCC2)nc(-c2ccccc2)n1
EC1.5: B (EC1.5>1 and ≦10 uM)
--
record smiles: CN(C)CCNc1cc(C(=O)Nc2ccccc2-c2nccs2)nc(-c2ccccc2)n1
EC1.5: A (EC1.5≦1 uM)
--
record smiles: CN(C)CCNc1cc(C(=O)Nc2ccccc2-c2nnc(-c3ccccn3)s2)nc(-c2ccccc2)n1
EC1.5: A (EC1.5≦1 uM)
--
record smiles: CCCCC(=O)c1ccccc1NC(=O)c1cc(NCCN(C)C)nc(-c2ccccc2)n1
EC1.5: B (EC1.5>1 and ≦10 uM)
--
record smiles: COCCN(CCOC)c1cc(C(=O)Nc2ccccc2C(C)=O)nc(-c2ccccc2)n1
EC1.5: A (EC1.5≦1 uM)
--
record smiles: Cc1csc(-c2ccccc2NC(=O)c2cc(NCCN(C)C)nc(-c3ccccc3)n2)n1
EC1.5: B (EC1.5>1 and ≦10 uM)
--
record smiles: O=C1CN(c2cc(C(=O)Nc3ccccc3-c3nnc(N4CCN5CCC[C@H]5C4)s3)nc(-c3ccccc3)n2)CCN1
EC1.5: A (EC1.5≦1 uM)
--
record smiles: CN(C)CCN(C)c1cc(C(=O)Nc2ccccc2-c2nnc(-c3ccccc3)s2)nc(-c2ccccc2)c1
EC1.5: A (EC1.5≦1 uM)
--
record smiles: O=C(Nc1ccccc1-c1nnc(N2CCOCC2)s1)c1cc(NC(CO)CO)nc(-c2ccccc2)n1
EC1.5: A (EC1.5≦1 uM)

----------
Biological target: SIRT1 (Homo sapiens, UniProt Q96EB6)
Assay: Mass spectrometry based SIRT1 deacetylation (activation) assay
Type: biochemical
Conditions: 0.5 μM peptide substrate, 120 μM βNAD+, 10 nM SIRT1, 25 min at 25° C.
Counter-ions that a name gives are not always drawn.
measurement kind: EC1.5

compound: CN(C)CCNc1cc(C(=O)Nc2ccccc2-c2nnc(-c3ccncc3)s2)nc(-c2ccccc2)n1 [Compound 78]
assayed target: SIRT1 (Homo sapiens, UniProt Q96EB6)
assay result: A (EC1.5≦1 uM)
--
compound: CN(C)CCNc1cc(C(=O)Nc2ccccc2-c2ccco2)nc(-c2ccccc2)n1 [Compound 16]
assayed target: SIRT1 (Homo sapiens, UniProt Q96EB6)
assay result: B (EC1.5>1 and ≦10 uM)
--
compound: CCN(CCN(C)C)c1cc(C(=O)Nc2ccccc2-c2ncc(C(C)(C)C)s2)nc(-c2ccccc2)c1 [Compound 42]
assayed target: SIRT1 (Homo sapiens, UniProt Q96EB6)
assay result: A (EC1.5≦1 uM)
--
compound: CC(C)(C)c1cnc(-c2ccccc2NC(=O)c2cc(OC[C@@H](O)CO)cc(-c3ccccc3)n2)o1 [Compound 76]
assayed target: SIRT1 (Homo sapiens, UniProt Q96EB6)
assay result: B (EC1.5>1 and ≦10 uM)
--
compound: CCN(CCN(C)C)c1cc(C(=O)Nc2ccccc2-c2nnc(-c3ccncc3)s2)nc(-c2ccccc2)n1 [Compound 82]
assayed target: SIRT1 (Homo sapiens, UniProt Q96EB6)
assay result: A (EC1.5≦1 uM)
--
compound: CCCCc1nnc(-c2ccccc2NC(=O)c2cc(NCCN(C)C)nc(-c3ccccc3)n2)s1 [Compound 61]
assayed target: SIRT1 (Homo sapiens, UniProt Q96EB6)
assay result: B (EC1.5>1 and ≦10 uM)
--
compound: CCN(CCN(C)C)c1cc(C(=O)Nc2ccccc2C(=O)NC2CCCCC2)nc(-c2ccccc2)n1 [Compound 165]
assayed target: SIRT1 (Homo sapiens, UniProt Q96EB6)
assay result: A (EC1.5≦1 uM)
--
compound: CCN(CCN(C)C)c1cc(C(=O)Nc2ccccc2-c2nnc(C3CCOC3)s2)nc(-c2ccccc2)n1 (stereo not drawn) [Compound 97]
assayed target: SIRT1 (Homo sapiens, UniProt Q96EB6)
assay result: A (EC1.5≦1 uM)
--
compound: CN(C)CCNc1cc(C(=O)Nc2ccccc2C(=O)Nc2cccc(Cl)c2)nc(-c2ccccc2)n1 [Compound 145]
assayed target: SIRT1 (Homo sapiens, UniProt Q96EB6)
assay result: A (EC1.5≦1 uM)
--
compound: CN(C)CCNc1cc(C(=O)Nc2ccccc2-c2ncc(C(C)(C)C)o2)nc(-c2ccccc2)c1 [Compound 31]
assayed target: SIRT1 (Homo sapiens, UniProt Q96EB6)
assay result: B (EC1.5>1 and ≦10 uM)
--
compound: CCN(CCN(C)C)c1cc(C(=O)Nc2ccccc2C(=O)NC2CCNC2)nc(-c2ccccc2)n1 (stereo not drawn) [Compound 175]
assayed target: SIRT1 (Homo sapiens, UniProt Q96EB6)
assay result: A (EC1.5≦1 uM)
--
compound: CN(C)CCNc1cc(C(=O)Nc2ccccc2Br)nc(-c2ccccc2)n1 [Compound 136]
assayed target: SIRT1 (Homo sapiens, UniProt Q96EB6)
assay result: B (EC1.5>1 and ≦10 uM)
--
compound: CN(C)CCNc1cc(C(=O)Nc2ccccc2-c2ncc(-c3ccccc3)s2)nc(-c2ccccc2)n1 [Compound 13]
assayed target: SIRT1 (Homo sapiens, UniProt Q96EB6)
assay result: A (EC1.5≦1 uM)
--
compound: CCN(CCN(C)C)c1cc(C(=O)Nc2ccccc2-c2nnc(C3CCOCC3)s2)nc(-c2ccccc2)n1 [Compound 93, hydrochloride]
assayed target: SIRT1 (Homo sapiens, UniProt Q96EB6)
assay result: A (EC1.5≦1 uM)
--
compound: CCN(CCN(C)C)c1cc(C(=O)Nc2ccccc2-c2nnc([S+](C)[O-])s2)nc(-c2ccccc2)n1 (stereo not drawn) [Compound 116]
assayed target: SIRT1 (Homo sapiens, UniProt Q96EB6)
assay result: A (EC1.5≦1 uM)

----------
Target: SIRT1 (Homo sapiens, UniProt Q96EB6)
Sequence (Q96EB6 1-747): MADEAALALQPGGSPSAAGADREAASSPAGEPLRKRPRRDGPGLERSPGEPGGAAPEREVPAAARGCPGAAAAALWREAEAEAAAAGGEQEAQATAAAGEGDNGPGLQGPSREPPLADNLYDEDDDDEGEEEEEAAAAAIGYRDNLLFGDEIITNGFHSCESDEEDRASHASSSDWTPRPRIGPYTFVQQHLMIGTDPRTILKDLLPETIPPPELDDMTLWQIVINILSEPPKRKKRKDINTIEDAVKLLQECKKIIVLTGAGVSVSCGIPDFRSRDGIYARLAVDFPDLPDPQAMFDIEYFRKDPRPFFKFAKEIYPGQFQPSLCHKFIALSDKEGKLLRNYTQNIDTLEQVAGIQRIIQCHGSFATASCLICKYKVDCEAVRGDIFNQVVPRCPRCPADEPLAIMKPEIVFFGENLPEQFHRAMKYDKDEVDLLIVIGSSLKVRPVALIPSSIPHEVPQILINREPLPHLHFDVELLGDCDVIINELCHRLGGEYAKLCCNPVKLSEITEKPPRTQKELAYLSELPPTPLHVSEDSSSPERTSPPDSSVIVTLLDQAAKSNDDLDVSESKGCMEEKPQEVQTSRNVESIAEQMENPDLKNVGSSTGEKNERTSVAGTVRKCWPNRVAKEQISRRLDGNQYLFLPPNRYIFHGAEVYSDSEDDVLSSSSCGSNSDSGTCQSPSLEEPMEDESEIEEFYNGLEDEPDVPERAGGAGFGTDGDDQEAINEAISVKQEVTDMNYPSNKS
Experiment: Mass spectrometry based SIRT1 deacetylation (activation) assay
Assay type: biochemical
Details: 0.5 μM peptide substrate, 120 μM βNAD+, 10 nM SIRT1, 25 min at 25° C.

record smiles: Cc1cnc(-c2ccccc2NC(=O)c2cc(NCCN(C)C)nc(-c3ccccc3)n2)o1
EC1.5: B (EC1.5>1 and ≦10 uM)
--
record smiles: CN(C)CCNc1cc(C(=O)Nc2ccccc2C(=O)Nc2ccccc2)nc(-c2ccccc2)n1
EC1.5: B (EC1.5>1 and ≦10 uM)
--
record smiles: CCN(CCN(C)C)c1cc(C(=O)Nc2ccccc2-c2ncc(C(C)(C)C)o2)nc(-c2ccccc2)n1
EC1.5: B (EC1.5>1 and ≦10 uM)
--
record smiles: CCCc1nnc(-c2ccccc2NC(=O)c2cc(NCCN(C)C)nc(-c3ccccc3)n2)s1
EC1.5: B (EC1.5>1 and ≦10 uM)
--
record smiles: CN(C)CCNc1cc(C(=O)Nc2ccccc2-c2nncs2)nc(-c2ccccc2)n1
EC1.5: A (EC1.5≦1 uM)
--
record smiles: CN(C)CCNc1cc(C(=O)Nc2ccccc2C(=O)c2ccccc2)nc(-c2ccccc2)n1
EC1.5: B (EC1.5>1 and ≦10 uM)
--
record smiles: CSCCNC(=O)c1ccccc1NC(=O)c1cc(NCCN(C)C)nc(-c2ccccc2)n1
EC1.5: B (EC1.5>1 and ≦10 uM)
--
record smiles: Cc1cnc(-c2ccccc2NC(=O)c2cc(NCCN(C)C)nc(-c3ccccc3)n2)s1
EC1.5: B (EC1.5>1 and ≦10 uM)
--
record smiles: CCN(CCN(C)C)c1cc(C(=O)Nc2ccccc2-c2cnc(-c3ccccc3)[nH]2)nc(-c2ccccc2)n1
EC1.5: A (EC1.5≦1 uM)
--
record smiles: Cc1cccc(NC(=O)c2ccccc2NC(=O)c2cc(NCCN(C)C)nc(-c3ccccc3)n2)c1
EC1.5: B (EC1.5>1 and ≦10 uM)
--
record smiles: CCN1CCN(c2cc(C(=O)Nc3ccccc3-c3nnc(C4CCOCC4)s3)nc(-c3ccccc3)n2)CC1=O
EC1.5: A (EC1.5≦1 uM)
--
record smiles: CCN1CCN(c2cc(C(=O)Nc3ccccc3-c3nncs3)nc(-c3ccccc3)n2)CC1=O
EC1.5: A (EC1.5≦1 uM)
--
record smiles: CCN(CCN(C)C)c1cc(C(=O)Nc2ccccc2C(=O)NC2CCNCC2)nc(-c2ccccc2)n1
EC1.5: A (EC1.5≦1 uM)
--
record smiles: CN(C)CCNc1cc(C(=O)Nc2ccccc2C(=O)Nc2cccc(S(C)(=O)=O)c2)nc(-c2ccccc2)n1
EC1.5: A (EC1.5≦1 uM)
--
record smiles: C/C(=N\O)c1ccccc1NC(=O)c1cc(NCCN(C)C)nc(-c2ccccc2)n1
EC1.5: B (EC1.5>1 and ≦10 uM)
